System: NCI-H226 lung
method-summary: NCI tumour cell line growth inhibition, 48 h

[
  {
    "molecule": "CC1=C(C(=O)Nc2ccc([N+](=O)[O-])cc2)C(c2ccc3c(c2)OCO3)C(C(=O)Nc2ccc([N+](=O)[O-])cc2)=C(C)N1",
    "target-or-test-system": "NCI-H226 lung",
    "TGI": "55.8 µM"
  },
  {
    "molecule": "C/C(=N\\NC(=S)N1CCCCCCCCCCCC1)c1ccccn1",
    "target-or-test-system": "NCI-H226 lung",
    "TGI": "1.02 µM"
  },
  {
    "molecule": "CCCCNC(=O)Oc1ccc(/C(=C(/C)Cc2ccc(OC)cc2)c2ccc(OCCN3CCCC3)cc2)cc1",
    "target-or-test-system": "NCI-H226 lung",
    "TGI": "11.4 µM"
  },
  {
    "molecule": "C=C1C2CC(OC(C)=O)C3(C)C(c4ccoc4)OC(=O)[C@@H](O)[C@]13OC1C[C@H](OC(C)=O)C(C)(C)[C@H](CC(=O)OC)[C@]12C (stereo not given in full)",
    "target-or-test-system": "NCI-H226 lung",
    "TGI": "> 100 µM"
  },
  {
    "molecule": "CN(C)S(=O)(=O)n1cnc(CO)c1",
    "target-or-test-system": "NCI-H226 lung",
    "TGI": "> 100 µM"
  },
  {
    "molecule": "COc1ccc2c(c1)[n+]([O-])c(-c1ccc(C)cc1)c(N)[n+]2[O-]",
    "target-or-test-system": "NCI-H226 lung",
    "TGI": "> 100 µM"
  },
  {
    "molecule": "N#Cc1c(Cl)nc2ccccc2c1N=[N+]=[N-]",
    "target-or-test-system": "NCI-H226 lung",
    "TGI": "33.1 µM"
  },
  {
    "molecule": "Nc1nc(N)c2c(n1)NC(c1ccccc1)C1CCc3ccccc3C1=N2 (stereo not given)",
    "target-or-test-system": "NCI-H226 lung",
    "TGI": "28.9 µM"
  },
  {
    "molecule": "CCCNC(=O)c1ccc(Cl)cc1Cl",
    "target-or-test-system": "NCI-H226 lung",
    "TGI": "> 100 µM"
  },
  {
    "molecule": "C[C@]1(Cn2ccnn2)C(C(=O)O)N2C(=O)CC2S1(=O)=O (stereo not given in full)",
    "target-or-test-system": "NCI-H226 lung",
    "TGI": "> 100 µM"
  }
]

----------
Catalogue of TGI values
Test system: SK-MEL-28 melanoma
method-summary: NCI tumour cell line growth inhibition, 48 h

[
  {
    "compound": "C/C(=N\\N=C(\\[Se])N(C)C)c1ccccn1",
    "TGI": "18.9 µM"
  },
  {
    "compound": "O=C(CN1CCOCC1)c1ccc2c(c1)oc(=O)n2CCN1CCCC1",
    "TGI": "> 100 µM"
  },
  {
    "compound": "CCN(CC)/[N+]([O-])=N/OCOC(C)=O",
    "TGI": "> 100 µM"
  },
  {
    "compound": "C#CC1(O)c2ccccc2C(=O)c2ccccc21",
    "TGI": "> 100 µM"
  },
  {
    "compound": "COC(=O)c1ccccc1/C=C1\\Cc2c(C)cc(C)cc2C1=O",
    "TGI": "> 100 µM"
  },
  {
    "compound": "[O-][N+]1=NC(c2ccccc2)=C1c1ccccc1",
    "TGI": "> 50 µM"
  },
  {
    "compound": "CCCCC(=O)N/N=C/c1c(O)ccc2ccccc12",
    "TGI": "> 52.2 µM"
  },
  {
    "compound": "OCCNCCCOc1ccc2ncnc(Nc3ccc(Oc4cccc(C(F)(F)F)c4)c(Cl)c3)c2c1",
    "TGI": "3.21 µM"
  },
  {
    "compound": "Cc1ccc(/C=C2\\CCCC(CN(C)C)C2=O)cc1 (configuration not stated)",
    "TGI": "3.9 µM"
  },
  {
    "compound": "O=c1[nH]nc(Cn2c3ccc(Br)cc3c3nc4ccccc4nc32)n1C1CCCCC1",
    "TGI": "59.2 µM"
  },
  {
    "compound": "Cc1nn2c(C(=O)N/N=C/c3ccc([N+](=O)[O-])cc3)c(C)nc2s1",
    "TGI": "> 100 µM"
  },
  {
    "compound": "CCOC(=O)[C@H]1Nc2ccc([N+](=O)[O-])cc2C2c3ccccc3CC21 (some centres not stated)",
    "TGI": "31.9 µM"
  },
  {
    "compound": "Oc1ccccc1C1=NOC(c2ccc(C(F)(F)F)cc2)C1 (configuration not stated)",
    "TGI": "> 50 µM"
  },
  {
    "compound": "C=CC/C(=C\\COP(=O)(OCc1ccc([N+](=O)[O-])o1)N(C)CCCCCl)CC/C=C(\\C)CCC=C(C)C (configuration not stated)",
    "TGI": "32.9 µM"
  },
  {
    "compound": "O=C1NC(=O)/C(=C/c2ccc(S(=O)(=O)N/N=C\\C(O)C(O)C(O)C(O)CO)cc2)N1 (configuration not stated)",
    "TGI": "> 100 µM"
  },
  {
    "compound": "COc1cccc2c1C(=O)c1c(O)c3c(c(O)c1C2=O)C[C@@](O)(C(=O)CO)CC3OC1CC(O)C(O)C(C)O1 (some centres not stated)",
    "TGI": "2.28 µM"
  },
  {
    "compound": "CN(C)CC(C(=O)Cc1ccccc1)c1ccccc1 (configuration not stated)",
    "TGI": "10.2 µM"
  },
  {
    "compound": "COC(=O)[C@@H](Cc1ccccc1)N1O[C@]12CCCC[C@@H]2NC(=O)OC(C)(C)C (some centres not stated)",
    "TGI": "60.7 µM"
  },
  {
    "compound": "NCCCCC(=O)c1cccnc1",
    "TGI": "> 100 µM"
  },
  {
    "compound": "CN(C)CC1CCCCCCCCCC(CN(C)C)C1=O (configuration not stated)",
    "TGI": "> 54.4 µM"
  },
  {
    "compound": "C=CC(Br)(CBr)CCC(Br)C(C)(C)Cl (configuration not stated)",
    "TGI": "6 µM"
  },
  {
    "compound": "CC(C)(C)c1cc(OCc2nnc3sc(=S)[nH]n23)c(Cl)cc1OCc1nnc2sc(=S)[nH]n12",
    "TGI": "58.4 µM"
  }
]
